# tested_target: Nuclear receptor subfamily 5 group A member 2 (Homo sapiens) (UniProt O00482)
# Sequence (O00482 whole entry, looked up): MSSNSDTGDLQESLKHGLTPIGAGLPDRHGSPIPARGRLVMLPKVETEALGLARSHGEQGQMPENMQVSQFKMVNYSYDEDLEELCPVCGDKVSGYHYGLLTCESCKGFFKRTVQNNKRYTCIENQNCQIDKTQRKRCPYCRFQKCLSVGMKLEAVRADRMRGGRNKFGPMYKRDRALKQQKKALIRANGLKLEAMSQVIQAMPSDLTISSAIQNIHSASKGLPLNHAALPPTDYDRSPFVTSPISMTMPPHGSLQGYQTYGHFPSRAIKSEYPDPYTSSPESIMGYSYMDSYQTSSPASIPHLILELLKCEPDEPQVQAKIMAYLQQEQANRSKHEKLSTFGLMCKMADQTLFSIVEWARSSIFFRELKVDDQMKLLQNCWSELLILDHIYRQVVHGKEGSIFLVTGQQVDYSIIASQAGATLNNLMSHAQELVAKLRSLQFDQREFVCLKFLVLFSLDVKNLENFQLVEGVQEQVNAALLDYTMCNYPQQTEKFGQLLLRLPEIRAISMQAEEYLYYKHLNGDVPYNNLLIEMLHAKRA
# protocol_description: LRH-1 (NR5A2) inverse agonists, retest, confirmation, cell-based, luminescence (AID 651613);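 note: HEK293T cells co-transfected with LRH-1 and StAR promoter luciferase reporter; 0% = vehicle wells and 100% = parental cells lacking receptor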
# stated_conditions: cell-based LRH-1 luciferase reporter, inverse agonism; at 3.6 µM; stronger effect = higher value
Threshold rule: inhibition greater than or equal to 50% is criterion met; below that, criterion not met.

Worked examples, 5 compounds total:
**Query** For this compound, is measured inhibition 50% or higher? "Cc1ccc(-c2csc(NC(=O)C3CCN(S(=O)(=O)c4cccs4)CC3)n2)cc1"
**Result** criterion met

**Query** For this compound, is measured inhibition 50% or higher? "CCOc1ccc(S(=O)(=O)Nc2nc3ccccc3nc2N2CCN(C)CC2)cc1"
**Result** criterion not met

**Query** For this compound, is measured inhibition 50% or higher? "Nc1ccc2c(c1)C(=O)C(=O)c1ccccc1-2"
**Result** criterion met

**Query** For this compound, is measured inhibition 50% or higher? O=C(N/N=C/c1ccc([N+](=O)[O-])s1)C(O)c1ccccc1 (configuration not stated)
**Result** criterion not met

**Query** For this compound, is measured inhibition 50% or higher? "CCNc1nc(-c2sc(NC(=O)C(C)(C)C)nc2C)c(-n2cc(-c3ccccc3)nn2)s1"
**Result** criterion not met

Shift focus to the following entry.
**Query** For this compound, is measured inhibition 50% or higher? "Cc1ccc2[nH]c3nc(N/N=C/c4cccc(O)c4)nnc3c2c1"
**Result** criterion met

* * *

# System: transactivating tegument protein VP16 (Human herpesvirus 1), Gal4-VP16 luciferase reporter
# protocol_description: VP16 transactivation inhibitors, counter-screen for SRC3 inhibitor project, cell-based, luminescence, high throughput (AID 588794)
# stated_conditions: mammalian cells, VP16-driven luciferase reporter luminescence; at 3.6 µM; stronger effect = higher value
Listed here are molecules together with their documented inhibition.
Give the number; % is assumed, so skip it.

**Query** Entry "COC(=O)/C=C/C(=O)Nc1cccc(C(F)(F)F)c1" : reported inhibition = ?
**Result** 6.7

**Query** Entry COC(=O)C1=C(CN2CCCc3ccccc32)NC(=O)NC1c1ccc(F)cc1 (stereo not given) : reported inhibition = ?
**Result** 32.3

**Query** Entry "COc1ccc(C(=O)Nc2ccc(C)cn2)c(OC)c1" : reported inhibition = ?
**Result** -4.91

**Query** Entry "CCC(C)(C)c1ccc(OCCCC[n+]2ccccc2)c(C(C)(C)CC)c1" : reported inhibition = ?
**Result** 37.4

Others:
**Query** Entry "O=C(CCN1CCN(c2ccccc2)CC1)Nc1ccc(Cl)cc1" : reported inhibition = ?
**Result** 1.2

**Query** Entry "Nc1nc(N)c2c(ccc3c2ccn3Cc2cccc([N+](=O)[O-])c2)n1" : reported inhibition = ?
**Result** 42.6

**Query** Entry "COc1ccc(Nc2nc(N3CCCC3)nc3ccccc23)c(OC)c1" : reported inhibition = ?
**Result** 37.1

**Query** Entry "C=C(C)COc1ccc(-c2[nH]ncc2-c2ccc(OC)cc2)c(O)c1" : reported inhibition = ?
**Result** 14.5

**Query** Entry "COc1cc(C=CC(=O)c2ccccc2)cc(OC)c1OC" : reported inhibition = ?
**Result** 30.1

**Query** Entry Cc1ccc(NC(=O)NC2CC(=O)N(c3ccc4c(c3)OCCO4)C2)cc1C (stereo not given) : reported inhibition = ?
**Result** 33.8

* * *

# tested_target: Nuclear receptor coactivator 3 (Homo sapiens)
# protocol_description: SRC3 coactivator transcriptional activity inhibitors, confirmation, cell-based, luminescence, quadruplicate (AID 588792);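 note: 0% = DMSO treated cells and 100% = gossypol at 36 µM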
# stated_conditions: HEK293 GAL4-SRC3 luciferase reporter, at 3.6 µM
The source made the active and inactive calls.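 How the source made its calls: active means mean inhibition over 43.08%, the solvent-only control mean plus 3 SD; inactive means the rest.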
// one of active, inactive, no free text

Worked examples, 4 compounds total:
**Query** For this compound, state the assay outcome: "Cc1ccc2nc(NC(=O)CSCC(=O)OCC(=O)c3ccc(Br)cc3)sc2c1"
**Result** inactive

**Query** For this compound, state the assay outcome: "CN(C)c1ccc(Nc2ncnc3ccc(Br)cc23)cc1"
**Result** active

**Query** For this compound, state the assay outcome: OCCN(CCO)CC(O)COc1ccc(C23CC4CC(CC(C4)C2)C3)cc1 (stereo not given)
**Result** inactive

**Query** For this compound, state the assay outcome: "Cc1[nH]nc2ncc(C(=O)c3ccccc3O)cc12"
**Result** active

Others:
**Query** For this compound, state the assay outcome: "CCOc1cccc(/C=N/NC(=S)Nc2ccccc2[N+](=O)[O-])c1O"
**Result** active

* * *

# protocol_description: VP16 transactivation inhibitors, counter-screen for SRC1 inhibitor project, cell-based, luminescence, high throughput (AID 588824)
# stated_conditions: cell-based VP16 transactivation luciferase luminescence; at 3.6 µM; stronger effect = higher value
reported_property: inhibition (%)
Give the number; % is assumed, so skip it.

// solved cases for inhibition follow
**Query** Entry "Cc1c(C(=O)N2CCN(Cc3ccc4c(c3)OCO4)CC2)sc2ncnc(N3CCN(c4ccccc4)CC3)c12" : reported inhibition = ?
**Result** 19.7

**Query** Entry "COC(=O)c1ccc2nc(NC(=O)C(C)(C)C)sc2c1" : reported inhibition = ?
**Result** -60.1

**Query** Entry CCC1(O)C(=O)OCc2c1cc1n(c2=O)Cc2cc3c(N)cccc3nc2-1 (stereo not given) : reported inhibition = ?
**Result** 71.3

**Query** Entry CC1(c2ccc3ccccc3c2)NC(=O)N(CC(=O)N2CCN(Cc3ccccc3)CC2)C1=O (stereo not given) : reported inhibition = ?
**Result** 37.1

Here is another compound to look at.
**Query** Entry "O=C(N/N=C/c1cc(Br)ccc1O)c1ccncc1" : reported inhibition = ?
**Result** 39.9

* * *

# tested_target: Steroidogenic factor 1 (Homo sapiens)
# protocol_description: SF1 (NR5A1) inverse agonists, counter-screen for LRH-1 inverse agonist project, cell-based, luminescence, high throughput (AID 651614);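 note: cells cotransfected with StAR promoter reporter and SF1 expression vector; 0% = vehicle on cells with receptor and 100% = vehicle on cells lacking receptor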
# stated_conditions: cell-based SF1 luciferase reporter, at 3.6 µM, stronger effect = higher value
Threshold rule: inhibition greater than or equal to 40% is Y; below that, N.

Worked examples, 8 compounds total:
**Query** For this compound, is measured inhibition 40% or higher? CCCCC(=O)NC(c1ccc(Cl)cc1)c1ccc2cccnc2c1O (centres undefined)
**Result** Y

**Query** For this compound, is measured inhibition 40% or higher? "O=C(Nc1ccccc1C(=O)Nc1nccs1)c1ccccc1"
**Result** Y

**Query** For this compound, is measured inhibition 40% or higher? "Cc1ccccc1C(=O)NC1CCN(CC(=O)Nc2ccc(Br)cc2)CC1"
**Result** Y

**Query** For this compound, is measured inhibition 40% or higher? COc1cc2c(cc1OC)C(C1C(=O)CC(C)CC1=O)N(C(=O)CCl)CC2 (centres undefined)
**Result** Y

**Query** For this compound, is measured inhibition 40% or higher? "CC(=O)N1CCc2c(sc(NC(=O)Cc3ccccc3)c2C#N)C1"
**Result** Y

**Query** For this compound, is measured inhibition 40% or higher? "Cc1sc(NC(=O)C(C)C)c(C(=O)Nc2ccccc2)c1C"
**Result** Y

**Query** For this compound, is measured inhibition 40% or higher? "COc1ccc(CCNC(=O)COC(=O)Cc2ccccc2[N+](=O)[O-])cc1"
**Result** Y

**Query** For this compound, is measured inhibition 40% or higher? "CC1(C)N=C(N)N=C(N)N1CCCCc1ccccc1"
**Result** N

Others:
**Query** For this compound, is measured inhibition 40% or higher? "CCn1c2ccccc2c2cc(/C=N/n3c(C)nnc3C)ccc21"
**Result** N

**Query** For this compound, is measured inhibition 40% or higher? "Cc1ccc(OCCN2CCN(c3ncnc4sc(C)c(C)c34)CC2)cc1"
**Result** Y

**Query** For this compound, is measured inhibition 40% or higher? "CC(C)NC(=O)N1Cc2cc(C(=O)NC3CCCC3)nc(-c3cccc(-c4cccnc4)c3)c2[C@@H]1CCO"
**Result** Y

**Query** For this compound, is measured inhibition 40% or higher? "COc1ccc(CCNc2c(C)c(C)nc3ncnn23)cc1"
**Result** Y

**Query** For this compound, is measured inhibition 40% or higher? "O=C(OCC(=O)N1CCN(C(=O)COC(=O)c2ccc(O)cc2O)CC1)c1ccc(O)cc1O"
**Result** Y

**Query** For this compound, is measured inhibition 40% or higher? "O=C(COc1ccc2c3c(c(=O)oc2c1)CCCC3)NCCCN1CCOCC1"
**Result** Y

**Query** For this compound, is measured inhibition 40% or higher? "O=C(N/N=C/c1c[nH]c2ccccc12)c1[nH]c2ccc(Br)cc2c1-c1ccccc1"
**Result** Y

**Query** For this compound, is measured inhibition 40% or higher? "Cc1cc(C)c2nc(NC(=O)c3ccc([N+](=O)[O-])o3)sc2c1"
**Result** Y

**Query** For this compound, is measured inhibition 40% or higher? "CC[n+]1ccccc1/C=C1\Sc2ccc(C)cc2N1C"
**Result** Y

**Query** For this compound, is measured inhibition 40% or higher? "O=C(c1ccccc1)N1CCN(c2ccc([N+](=O)[O-])c(N3CCOCC3)c2)CC1"
**Result** N

**Query** For this compound, is measured inhibition 40% or higher? "CCCN(CC)c1ncnc2[nH]ncc12"
**Result** N

# credit: PubChem BioAssay
